Provenance of the data: the supplement of paper PMC10567573

B1: KCNAB2 (parent)
chain: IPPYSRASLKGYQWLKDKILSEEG

variants of: B1; experiment: protein stability index of a GFP-peptide fusion (GPS, HEK-293T) (PSI 1-6); higher = more stable; settings: c terminus: a fixed tail appended;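 further: lentivirally expressed fusions sorted by FACS into six bins by GFP to DsRed ratio, PSI derived from sequencing read proportions per bin multiplied by bin number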
Assign condition met whenever protein stability index does not fall below 3; assign condition not met whenever it does.

>>> print(df.to_string())
                      sequence_code     category_label
 0  IPPYSRASLKGYQWLKDKIVSEEG [L20V]  condition not met
 1   IPPYSYASLKGYQWLKDKILSEEG [R6Y]  condition not met
 2   IPPYSHASLKGYQWLKDKILSEEG [R6H]  condition not met
 3   IVPYSRASLKGYQWLKDKILSEEG [P2V]      condition met
 4  IPPYSRASLKGYQWLKDKILSERG [E23R]  condition not met
 5   IYPYSRASLKGYQWLKDKILSEEG [P2Y]  condition not met
 6  IPPYSRASLKGYQWLKWKILSEEG [D17W]  condition not met
 7  IPPYSRASLKGYQWLKTKILSEEG [D17T]  condition not met
 8  IPPYSRASLKGYQWLKDKILTEEG [S21T]  condition not met
 9   IAPYSRASLKGYQWLKDKILSEEG [P2A]  condition not met
10  IPPYSRASLKGYQWLKDKILAEEG [S21A]  condition not met
11  IPPYSRASLAGYQWLKDKILSEEG [K10A]  condition not met
12  IPPYSRASLKGYQILKDKILSEEG [W14I]      condition met
13   IPDYSRASLKGYQWLKDKILSEEG [P3D]      condition met
14  IPPYSRASLQGYQWLKDKILSEEG [K10Q]      condition met
15  IPPYSRASLKGNQWLKDKILSEEG [Y12N]      condition met
16   IPPASRASLKGYQWLKDKILSEEG [Y4A]  condition not met
17  IPPYSRASLKGYQWAKDKILSEEG [L15A]      condition met
18  IPPYSRASLKGYQWLKQKILSEEG [D17Q]  condition not met
19  IPPYSRASLKGYQWLKDKILSEEH [G24H]  condition not met
20  IPPYSRASLKGYQWLKDTILSEEG [K18T]  condition not met
21   IPPYSEASLKGYQWLKDKILSEEG [R6E]      condition met
22  IPPYSRASLKGYQWLKDKILSEPG [E23P]  condition not met
23   FPPYSRASLKGYQWLKDKILSEEG [I1F]  condition not met
24  IPPYSRASLKGYQWLKDKIYSEEG [L20Y]  condition not met
25  IPPYSRASLKGYQWLKDWILSEEG [K18W]  condition not met
26  IPPYSRASLKGYQWLTDKILSEEG [K16T]  condition not met
27  IPPYSRASLKGPQWLKDKILSEEG [Y12P]      condition met
